System: K-562 leukemia growth, % test/control
experiment_description: Anticancer human tumor K-562 cell line growth inhibition; active means viability on the fitted dose curve at most 10% of control; inactive means the rest;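 further: spheroids exposed to compounds for 7 days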
condition: second compound 0.1 µM; first compound 3 µM; spheroids with HUVEC and MSC
Can you answer with just one of these options? active, inactive

# example entries with known answers
compound	label_value
COc1cc(C2c3cc4c(cc3C(OC3OC5COC(C)OC5C(O)C3O)C3COC(=O)C23)OCO4)cc(OC)c1O (stereo not drawn) + NC1CC1c1ccc(-c2cccc(O)c2)cc1	active
NS(=O)(=O)OCC1CC(n2ccc3c(NC4CCc5ccccc54)ncnc32)CC1O (stereo not drawn) + NC1CCC(NC2CC2c2ccccc2)CC1	active

From here, focus on the item given below.
IN: Please state the recorded outcome for this compound: CCN(c1cc(-c2ccc(CN3CCOCC3)cc2)cc(C(=O)NCc2c(C)cc(C)[nH]c2=O)c1C)C1CCOCC1 + NC1CC1c1ccc(-c2cccc(O)c2)cc1
OUT: inactive

###

Tested on: K-562 leukemia growth, % test/control
experiment_description: Anticancer human tumor K-562 cell line growth inhibition; active means viability on the fitted dose curve at most 10% of control; inactive means the rest;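 further: spheroids exposed to compounds for 7 days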
condition: second compound 1 µM; first compound 0.316 µM; spheroids with HUVEC and MSC
Can you answer with just one of these options? TRUE = active, FALSE = inactive

compound	label_value
Nc1ncn(C2CC(O)C(CO)O2)c(=O)n1 (stereo not drawn) + NC1CC1c1ccc(-c2cccc(O)c2)cc1	FALSE
Nc1ncn(C2CC(O)C(CO)O2)c(=O)n1 (stereo not drawn) + NC1CCC(NC2CC2c2ccccc2)CC1	FALSE

IN: Please state the recorded outcome for this compound: COc1cc(Nc2ncc3c(n2)-c2ccc(Cl)cc2C(c2c(F)cccc2OC)=NC3)ccc1C(=O)O + NC1CCC(NC2CC2c2ccccc2)CC1
OUT: FALSE

IN: Please state the recorded outcome for this compound: CC1COCCN1c1cc(C2(S(C)(=N)=O)CC2)nc(-c2ccnc3[nH]ccc23)n1 (stereo not drawn) + NC1CCC(NC2CC2c2ccccc2)CC1
OUT: FALSE

IN: Please state the recorded outcome for this compound: CC1(C)CCC(CN2CCN(c3ccc(C(=O)NS(=O)(=O)c4ccc(NCC5CCOCC5)c([N+](=O)[O-])c4)c(Oc4cnc5[nH]ccc5c4)c3)CC2)=C(c2ccc(Cl)cc2)C1 + NC1CCC(NC2CC2c2ccccc2)CC1
OUT: FALSE

IN: Please state the recorded outcome for this compound: O=C(c1cc(Cc2n[nH]c(=O)c3ccccc23)ccc1F)N1CCN(C(=O)C2CC2)CC1 + NC1CCC(NC2CC2c2ccccc2)CC1
OUT: FALSE

IN: Please state the recorded outcome for this compound: CC(C)c1c(-c2ccccc2)nc2c(C#N)c[nH]n2c1=O + NC1CC1c1ccc(-c2cccc(O)c2)cc1
OUT: FALSE

IN: Please state the recorded outcome for this compound: CC1COCCN1c1cc(C2(S(C)(=N)=O)CC2)nc(-c2ccnc3[nH]ccc23)n1 (stereo not drawn) + NC1CC1c1ccc(-c2cccc(O)c2)cc1
OUT: FALSE

IN: Please state the recorded outcome for this compound: CC1COCCN1c1cc(-c2ccnn2C)c2ccnc(-c3ccn[nH]3)c2n1 (stereo not drawn) + NC1CC1c1ccc(-c2cccc(O)c2)cc1
OUT: TRUE

IN: Please state the recorded outcome for this compound: CC1COCCN1c1cc(-c2ccnn2C)c2ccnc(-c3ccn[nH]3)c2n1 (stereo not drawn) + NC1CCC(NC2CC2c2ccccc2)CC1
OUT: TRUE

IN: Please state the recorded outcome for this compound: COc1ccc([C@@H](O)c2cc(-c3ncnc4cc(N5CCOCC5)ccc34)c(F)cc2Cl)nn1 + NC1CC1c1ccc(-c2cccc(O)c2)cc1
OUT: FALSE

IN: Please state the recorded outcome for this compound: O=C(C=Cn1cnc(-c2cc(C(F)(F)F)cc(C(F)(F)F)c2)n1)NNc1cnccn1 + NC1CCC(NC2CC2c2ccccc2)CC1
OUT: FALSE

IN: Please state the recorded outcome for this compound: COc1cc(Nc2ncc3c(n2)-c2ccc(Cl)cc2C(c2c(F)cccc2OC)=NC3)ccc1C(=O)O + NC1CC1c1ccc(-c2cccc(O)c2)cc1
OUT: TRUE

IN: Please state the recorded outcome for this compound: O=C(c1cc(Cc2n[nH]c(=O)c3ccccc23)ccc1F)N1CCN(C(=O)C2CC2)CC1 + NC1CC1c1ccc(-c2cccc(O)c2)cc1
OUT: FALSE
